method summary: qHTS of pediatric cancer cell lines to identify multiple opportunities for drug repurposing: Primary screen for BT-37 cells (AID 1347094)
condition parameters: BT-37 viability, CellTiter-Glo luminescence, 48 h; series mostly up to 57.3 µM
Inconclusive results are not listed. The source made the active and inactive calls. The call rests on the fitted dose curve; in most records, active means well fitted cell-killing curve with a large enough effect; inconclusive means small, poorly fitted or top-dose-only effect; inactive means flat fitted curve, though single readings scatter.
# valid calls are active, inactive; nothing else

Solved entries (count: 4):
| molecule | cat |
| --- | --- |
| O=C(O)CCC(=O)Nc1ccc(S(=O)(=O)Nc2nccs2)cc1 | inactive |
| CC1=C(C(=O)O)N2C(=O)[C@@H](NC(=O)[C@H](N)c3ccccc3)[C@H]2SC1 | inactive |
| OC[C@H]1O[C@@H]2O[C@H]3[C@H](O)[C@@H](O)[C@@H](O[C@H]4[C@H](O)[C@@H](O)[C@@H](O[C@H]5[C@H](O)[C@@H](O)[C@@H](O[C@H]6[C@H](O)[C@@H](O)[C@@H](O[C@H]7[C@H](O)[C@@H](O)[C@@H](O[C@H]8[C@H](O)[C@@H](O)[C@@H](O[C@H]1[C@H](O)[C@H]2O)O[C@@H]8CO)O[C@@H]7CO)O[C@@H]6CO)O[C@@H]5CO)O[C@@H]4CO)O[C@@H]3CO | inactive |
| CN1CCN(c2cc3c(cc2F)c(=O)c(C(=O)O)cn3-c2ccc(F)cc2)CC1 | inactive |

Recorded call for `C[C@@H](O)[C@H]1C(=O)N2C(C(=O)O)=C(S[C@@H]3CN[C@H](CNS(N)(=O)=O)C3)[C@H](C)[C@H]12` ? inactive

Recorded call for `O=C(CN1CCN(Cc2ccc3c(c2)OCO3)CC1)N1c2ccccc2Sc2ccccc21` ? inactive

Recorded call for `CCOc1ccccc1C(N)=O` ? inactive

Recorded call for `O=S(=O)(O)c1ccc(O)cc1` ? inactive

Recorded call for `CCOC(=O)C(C#N)=C(c1ccccc1)c1ccccc1` ? inactive

Recorded call for O=C(CCN1CCN2CCCC2C1)N1c2ccccc2Sc2ccc(Cl)cc21 (stereo unspecified) ? inactive

Recorded call for `Nc1nc(Cl)nc2c1ncn2[C@@H]1O[C@H](CO)[C@@H](O)[C@@H]1F` ? active

---

System: Es-2
method summary: Primary qHTS to identify gynecologic anti-cancer compounds using libraries of approved drugs and bioactive compounds (AID 1345084); further: nearly all actives have a fitted effect of over 55% in size
condition parameters: Gynecologic cancer cell panel viability, ATPlite luminescence, 48 h; series mostly up to 57.5 µM
Results filed as inconclusive are left out. Calls of active or inactive are those of the source. Calls come from the whole dose curve; as a rule, active = well fitted cell-killing curve with a large enough effect; inconclusive = small, poorly fitted or top-dose-only effect, or effect the other way; inactive = flat fitted curve, though single readings scatter.
# valid calls are 1.0 = active, 0.0 = inactive; nothing else

Solved entries (count: 5):
| molecule | cat |
| --- | --- |
| O=C(O)Cc1csc(-c2ccc(Cl)cc2)n1 | 0.0 |
| NC(N)=NN=C(/C=C/c1ccc([N+](=O)[O-])o1)/C=C/c1ccc([N+](=O)[O-])o1 | 1.0 |
| OC[C@H]1O[C@@H](Oc2ccc(O)cc2)[C@H](O)[C@@H](O)[C@@H]1O | 0.0 |
| CCCCC(CC)COC(=O)c1ccc(N(C)C)cc1 (centres undefined) | 0.0 |
| CC(C)[C@@H]1CC[C@@H](C)CC1=O | 0.0 |

Recorded call for CCN1CCCC(OC(=O)C(c2ccccc2)c2ccccc2)C1 (centres undefined) ? 0.0

Recorded call for `C#C[C@]1(OC(C)=O)CC[C@H]2[C@@H]3CCC4=C/C(=N/O)CC[C@@H]4[C@H]3CC[C@@]21CC` ? 0.0

Recorded call for `CC1=C(C(=O)O)N2C(=O)[C@@H](NC(=O)[C@H](N)c3ccccc3)[C@H]2SC1` ? 0.0

Recorded call for CCc1ccc(C(=O)C(C)CN2CCCCC2)cc1 (centres undefined) ? 0.0

Recorded call for `N[C@H](C(=O)O)[C@@H](O)c1ccc(O)c(O)c1` ? 0.0

Recorded call for `CCN(CC)CCOC(=O)C1(c2ccccc2)CCCC1` ? 0.0

---

Test system: PA-1
method summary: Primary qHTS to identify gynecologic anti-cancer compounds using libraries of approved drugs and bioactive compounds (AID 1345084); further: nearly all actives have a fitted effect of over 55% in size
condition parameters: Gynecologic cancer cell panel viability, ATPlite luminescence, 48 h; series mostly up to 57.5 µM
Records with an inconclusive call do not appear. Calls of active or inactive are those of the source. Calls follow the shape of the dose curve; as a rule, active = well fitted cell-killing curve with a large enough effect; inconclusive = small, poorly fitted or top-dose-only effect, or effect the other way; inactive = flat fitted curve, though single readings scatter.
# valid calls are active, inactive; nothing else

Solved entries (count: 3):
| compound | cat |
| --- | --- |
| Oc1c(Cl)cc(Cl)c(Cl)c1Cc1c(O)c(Cl)cc(Cl)c1Cl | active |
| C[C@@H](O)[C@H]1C(=O)N2C(C(=O)O)=C([C@H]3CCCO3)S[C@H]12 | inactive |
| COc1cc(NS(=O)(=O)c2ccc(N)cc2)ncn1 | inactive |

Recorded call for `CCCc1ncc(C[n+]2ccccc2C)c(N)n1` ? inactive

Recorded call for `Cc1cc(-c2ccccc2)nnc1NCCN1CCOCC1` ? inactive

Recorded call for CCC1Nc2cc(Cl)c(S(N)(=O)=O)cc2S(=O)(=O)N1 (stereo unspecified) ? inactive

Recorded call for `Nc1ccc(S(=O)(=O)NCc2ccccc2)cc1` ? inactive

Recorded call for CC(C)NCC(O)c1ccc2ccccc2c1 (stereo unspecified) ? inactive

Recorded call for `CCOCCn1c(N2CCCN(C)CC2)nc2ccccc21` ? inactive

Recorded call for `CN1CCN(c2cc3c(cc2F)c(=O)c(C(=O)O)cn3-c2ccc(F)cc2)CC1` ? inactive

Recorded call for `CC1=C(C(=O)O)N2C(=O)[C@@H](NC(=O)[C@H](N)c3ccccc3)[C@H]2SC1` ? inactive

---

System: CP268
method summary: qHTS profiling for inhibitors of Plasmodium falciparum proliferation (AID 504749); further: nearly all actives have a fitted effect of over 60% in size
condition parameters: P. falciparum in erythrocytes, SYBR Green DNA, 72 h; series mostly up to 28.7 µM
Inconclusive results are not listed. The source made the active and inactive calls. The call rests on the fitted dose curve; in most records, active means well fitted inhibition curve with a large enough effect; inconclusive means small, poorly fitted or top-dose-only effect; inactive means flat fitted curve, though single readings scatter.
# valid calls are true (1) for active, false (0) for inactive; nothing else

Solved entries (count: 5):
| molecule | cat |
| --- | --- |
| C#C[C@]1(OC(C)=O)CC[C@H]2[C@@H]3CCC4=C/C(=N/O)CC[C@@H]4[C@H]3CC[C@@]21CC | false (0) |
| O=C(O)C1(C(=O)O)CCC1.[NH2-].[NH2-].[Pt+2] | false (0) |
| CN1CCN(CCC(=O)N2c3ccccc3Sc3ccc(C(F)(F)F)cc32)CC1 | false (0) |
| CNCCc1ccccn1 | false (0) |
| CC[C@H](c1ccc(O)cc1)[C@@H](CC)c1ccc(O)cc1 | false (0) |

Recorded call for `O=C(Oc1cccc2cccnc12)c1ccccc1` ? false (0)

Recorded call for O=C1C(CCS(=O)c2ccccc2)C(=O)N(c2ccccc2)N1c1ccccc1 (stereo unspecified) ? false (0)

Recorded call for `COc1cc(C)nc(-n2nc(C)cc2OC)n1` ? false (0)

Recorded call for `Cc1ccc(O)c([C@H](CCN(C(C)C)C(C)C)c2ccccc2)c1` ? true (1)

Recorded call for `CC(C)Cn1cnc2c1c(=O)n(C)c(=O)n2C` ? false (0)

Recorded call for `CC(C)(C)NC[C@H](O)COc1cccc2c1CCCC2=O` ? false (0)

Recorded call for `O=S(=O)(O)c1ccc(O)cc1` ? false (0)

Recorded call for Cc1ccccc1OCC(O)CO (stereo unspecified) ? false (0)

Recorded call for `CC(=O)Nc1ccc(S(=O)(=O)Nc2ccc([N+](=O)[O-])cc2)cc1` ? false (0)

Recorded call for `Nc1ccc(C(=O)NCC(=O)O)cc1` ? false (0)

Recorded call for `OCc1ccccn1` ? false (0)

Recorded call for `Nc1ccc(S(=O)(=O)Nc2cnc3ccccc3n2)cc1` ? false (0)

Recorded call for `CCCCN=C(N)N=C(N)N` ? false (0)

Recorded call for `CC(=O)OCC(=O)[C@H]1CC[C@H]2[C@@H]3CCC4=CC(=O)CC[C@]4(C)[C@H]3CC[C@]12C` ? false (0)

Recorded call for `Cc1c[nH]c2ccccc12` ? false (0)

Recorded call for `CC(=O)Nc1ccc(CC(=O)O)cc1` ? false (0)

---

Test system: PA-1
method summary: Primary qHTS to identify gynecologic anti-cancer compounds using libraries of approved drugs and bioactive compounds (AID 1345084); further: nearly all actives have a fitted effect of over 55% in size
condition parameters: Gynecologic cancer cell panel viability, ATPlite luminescence, 48 h; series mostly up to 57.5 µM
Results filed as inconclusive are left out. Activity calls are given as the source filed them. The call rests on the fitted dose curve; in most records, active means well fitted cell-killing curve with a large enough effect; inconclusive means small, poorly fitted or top-dose-only effect, or effect the other way; inactive means flat fitted curve, though single readings scatter.
# valid calls are active, inactive; nothing else

| molecule | target or test system | cat |
| --- | --- | --- |
| CCN(CC)CCOc1ccccc1C(=O)CCc1ccccc1 | PA-1 | inactive |
| Nc1nc(Cl)nc2c1ncn2[C@@H]1O[C@H](CO)[C@@H](O)[C@@H]1F | PA-1 | active |

Recorded call for `CCCCCCCCCCCCSCCOCCO` ? inactive

Recorded call for `O=C(O)Cc1csc(-c2ccc(Cl)cc2)n1` ? inactive

Recorded call for `CCOc1ccccc1OCCN[C@H](C)Cc1ccc(OC)c(S(N)(=O)=O)c1` ? inactive

Recorded call for CC(C)(Cc1c[nH]c2ccccc12)NCC(O)COc1ccccc1C#N (stereo not drawn) ? inactive

Recorded call for `OC[C@H]1O[C@@H]2O[C@H]3[C@H](O)[C@@H](O)[C@@H](O[C@H]4[C@H](O)[C@@H](O)[C@@H](O[C@H]5[C@H](O)[C@@H](O)[C@@H](O[C@H]6[C@H](O)[C@@H](O)[C@@H](O[C@H]7[C@H](O)[C@@H](O)[C@@H](O[C@H]8[C@H](O)[C@@H](O)[C@@H](O[C@H]1[C@H](O)[C@H]2O)O[C@@H]8CO)O[C@@H]7CO)O[C@@H]6CO)O[C@@H]5CO)O[C@@H]4CO)O[C@@H]3CO` ? inactive

Recorded call for `CN(CCCN1c2ccccc2CCc2ccccc21)CC(=O)c1ccc(Cl)cc1` ? inactive

The measurements presented in this section are drawn from PubChem BioAssay (NCATS).
